Attribution: the emibetuzumab library of Makowski et al. (2022)

B1: VH:VL chains; a variant is named by its letters at X, in order (parent)
chain 1: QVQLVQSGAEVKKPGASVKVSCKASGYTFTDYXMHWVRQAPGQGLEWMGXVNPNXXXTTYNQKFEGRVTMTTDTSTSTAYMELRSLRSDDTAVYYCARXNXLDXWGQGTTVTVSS
chain 2: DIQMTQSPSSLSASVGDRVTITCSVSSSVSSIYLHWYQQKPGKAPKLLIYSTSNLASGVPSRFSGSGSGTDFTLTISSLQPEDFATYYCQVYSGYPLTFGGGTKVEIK

variants of: B1; experiment: yeast display scFab, FACS + sequencing

{"mutant": "DTEEGDVA", "non-specific binding call": "no binding"}
{"mutant": "VKRGSFVD", "non-specific binding call": "binds"}
{"mutant": "YKGKGFGD", "non-specific binding call": "binds"}
{"mutant": "VEREADWF", "non-specific binding call": "no binding"}
{"mutant": "VATGDDVA", "non-specific binding call": "no binding"}
{"mutant": "AATRNVGV", "non-specific binding call": "binds"}
{"mutant": "FKGRGFVV", "non-specific binding call": "binds"}
{"mutant": "AKAADSSD", "non-specific binding call": "binds"}
{"mutant": "YRGKGSAD", "non-specific binding call": "binds"}
{"mutant": "DTGKDAGD", "non-specific binding call": "no binding"}
{"mutant": "FRTGDAWV", "non-specific binding call": "no binding"}
